Overview of recorded EC50 for various compounds
# System: human MRGPRX2 (Homo sapiens, UniProt Q96LB1)
# Sequence (Q96LB1 1-330): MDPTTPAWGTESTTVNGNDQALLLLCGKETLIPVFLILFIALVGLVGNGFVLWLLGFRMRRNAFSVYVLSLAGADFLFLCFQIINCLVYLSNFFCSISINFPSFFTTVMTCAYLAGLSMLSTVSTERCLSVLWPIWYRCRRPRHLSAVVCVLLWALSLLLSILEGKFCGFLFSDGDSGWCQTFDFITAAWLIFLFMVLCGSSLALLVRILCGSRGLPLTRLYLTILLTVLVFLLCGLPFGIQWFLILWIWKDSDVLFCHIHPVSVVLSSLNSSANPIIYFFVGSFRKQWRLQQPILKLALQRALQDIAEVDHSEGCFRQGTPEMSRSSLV
# Experimental Details: MRGPRX2 IP-1 Gq HTRF assay in HEK293 cells stably expressing human MRGPRX2, Cortistatin-14 at EC75
# Run Parameters: 2 hours at 37° C., cellular IP-1

CC(=O)N1C[C@@H](NC(=O)c2ccc(F)c(F)c2)C[C@@H](Nc2cc(C(F)(F)F)nc3ccc(Cl)cc23)C1 :: 100 to 1000 nM
CS(=O)(=O)Nc1cccc(C(=O)N[C@@H]2CNC[C@H](Nc3cc(C(F)(F)F)nc4ccc(Cl)cc34)C2)c1 :: > 1000 nM

Okay, next one:
Can you look up the measured EC50 of `CC(=O)N1C[C@@H](NC(=O)c2cnn(CC(C)(C)O)c2)C[C@@H](Nc2cc(C(F)(F)F)nc3ccc(Cl)cc23)C1` for me?
< 100 nM

====

# System: MRGPRX2 LAD2 (Homo sapiens)
# Sequence (Q96LB1 1-330): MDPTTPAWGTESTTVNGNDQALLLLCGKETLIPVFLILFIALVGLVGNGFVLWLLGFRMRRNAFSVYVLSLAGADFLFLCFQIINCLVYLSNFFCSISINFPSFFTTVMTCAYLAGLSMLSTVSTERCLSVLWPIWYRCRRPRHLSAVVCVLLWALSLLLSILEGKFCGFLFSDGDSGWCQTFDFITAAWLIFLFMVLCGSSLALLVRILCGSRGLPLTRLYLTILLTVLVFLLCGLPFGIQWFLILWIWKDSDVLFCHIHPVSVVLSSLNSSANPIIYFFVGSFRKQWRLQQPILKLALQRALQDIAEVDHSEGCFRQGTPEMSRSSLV
# Experimental Details: LAD2 β-hexosaminidase release assay (degranulation), Cortistatin-14 at EC75
# Run Parameters: LAD2 cells; 1 hour compound incubation, Cortistatin-14 at EC75 for 30 minutes; percent degranulation (β-hexosaminidase)
Value Kind: EC50

CC(=O)N1C[C@@H](NC(=O)c2cn(CC(F)(F)F)nc2C2CC2)C[C@@H](Nc2c(F)c(C(F)(F)F)nc3ccc(Cl)cc23)C1 :: < 100 nM
O=C(N[C@H]1C[C@@H](Nc2cc(C(F)(F)F)nc3ccc(Cl)cc23)CN(C2COC2)C1)c1cn(CC(F)(F)F)nc1C1CC1 :: 100 to 1000 nM
CS(=O)(=O)Nc1cccc(C(=O)N[C@@H]2COC[C@H](Nc3cc(C(F)(F)F)nc4ccc(Cl)cc34)C2)c1 (racemic) :: < 100 nM

For the next question, use this molecule.
Given `O=C(N[C@H]1C[C@@H](Nc2cc(C(F)(F)F)nc3ccc(Cl)cc23)CN(C(=O)C(F)F)C1)c1cn(C[C@@H](O)C(F)(F)F)nc1Cl` , state its recorded EC50.
< 100 nM

====

# System: human MRGPRX2 (Homo sapiens)
# Experimental Details: MRGPRX2 IP-1 Gq HTRF assay in HEK293 cells stably expressing human MRGPRX2, Cortistatin-14 at EC75
# Run Parameters: 2 hours at 37° C., cellular IP-1
Value Kind: EC50

These recorded examples may help you get a feel for the data.
CC(=O)N1C[C@@H](NC(=O)c2cccc(NS(=O)(=O)C(F)(F)F)c2)C[C@@H](Nc2cc(C(F)(F)F)nc3ccc(Cl)cc23)C1 :: 100 to 1000 nM
CC(=O)N1C[C@@H](NC(=O)c2ccc3[nH]ncc3c2)C[C@@H](Nc2cc(C(F)(F)F)nc3ccc(Cl)cc23)C1 :: < 100 nM
COc1cc(C(=O)N[C@H]2C[C@@H](Nc3cc(C(F)(F)F)nc4ccc(Cl)cc34)CN(C(C)=O)C2)ccc1OC1CC1 :: 100 to 1000 nM

Now take the following compound into account.
Field request: EC50 | item: CS(=O)(=O)Nc1cccc(C(=O)N[C@@H]2COC[C@H](Nc3cc(C(F)(F)F)nc4ccc(Cl)cc34)C2)c1 (racemic)
< 100 nM

Hey, just so you know, these numbers are from patent US20250313569A1.
